system: Gal(a1-4)GlcNAc
assay_summary: glycan array binding signal (z-score within array); higher = stronger binding
condition_set: glycan notation: IUPAC condensed, linker removed
This is one part of a sample in which the strongest signals are shown more often than they occur.
quantity_name: glycan array binding signal (z-score)
Reply briefly: the number, and no unit.

1. CV-IIL (Chromobacterium violaceum) (protein) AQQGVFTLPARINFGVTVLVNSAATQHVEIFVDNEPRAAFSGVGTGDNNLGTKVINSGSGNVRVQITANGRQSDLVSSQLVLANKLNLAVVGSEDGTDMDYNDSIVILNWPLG    -0.501

[ask] Please give measured glycan array binding signal (z-score) of the following entry: PA-IL (Pseudomonas aeruginosa) (protein) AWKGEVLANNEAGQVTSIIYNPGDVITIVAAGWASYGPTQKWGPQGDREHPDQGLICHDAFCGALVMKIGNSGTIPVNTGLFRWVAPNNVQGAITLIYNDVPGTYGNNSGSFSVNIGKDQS
[reply] 3.15
